- Test system: HEK293FT dCK*-IKZF1
- protocol.description: relative growth recovery (pomalidomide 10 uM = 100%, DMSO = 0%); higher = more growth rescue (IKZF1 fusion degradation)
- protocol.conditions: compound concentration: 5 uM; AraC concentration: 0.3 uM; overnight pretreatment + 4 days AraC
Over roughly 1,000 compounds, “relative growth recovery (pomalidomide 10 uM = 100%, DMSO = 0%)” has its median near -1.6; the highest 2% begin near 21. The sample holds the highest values, similar compounds and a random draw of the others, so the mix is not that of the screen.
Give relative growth recovery for every item shown.
Express it in %; write the number only.

### Prompt Field request: relative growth recovery | item: `CCC(C)(C)C(=O)Nc1ccc(S(=O)(=O)Nc2ncccn2)cc1`
### Response -5.08

### Prompt Field request: relative growth recovery | item: `Cc1cccc(C(=O)Nc2ccc(S(=O)(=O)Nc3nc(C)cc(C)n3)cc2)c1`
### Response 4.85

### Prompt Field request: relative growth recovery | item: COc1ccccc1CCC(=O)N1CCOC(c2cccc(Nc3ncc(C)s3)n2)C1 (stereo not drawn)
### Response 10.8

###

- Tested on: HEK293FT dCK*-IKZF1
- protocol.description: relative growth recovery (pomalidomide 10 uM = 100%, DMSO = 0%); higher = more growth rescue (IKZF1 fusion degradation)
- protocol.conditions: compound concentration: 5 uM; AraC concentration: 0.3 uM; overnight pretreatment + 4 days AraC
Over roughly 1,000 compounds, “relative growth recovery (pomalidomide 10 uM = 100%, DMSO = 0%)” has its median near -1.6; the highest 2% begin near 21. The list comes from a sample in which the highest values are over-represented; it also holds close analogues and randomly drawn compounds.
result.type: relative growth recovery (%)
Express it in %; write the number only.

### Prompt Field request: relative growth recovery | item: `COc1cc(NS(=O)(=O)c2ccc(NC(=O)c3ccc(Br)o3)cc2)nc(OC)n1`
### Response 2.29

### Prompt Field request: relative growth recovery | item: Cc1cnc(Nc2cccc(C3CN(C(=O)C4CCCCC4)CCO3)n2)s1 (stereo unspecified)
### Response -11.7

### Prompt Field request: relative growth recovery | item: Cc1cnc(Nc2cccc(C3CN(C(=O)CN(CCC(C)C)c4ccccc4)CCO3)n2)s1 (stereo unspecified)
### Response -3.83

### Prompt Field request: relative growth recovery | item: Cc1cnc(Nc2cccc(C3CCCN3C(=O)c3nccc4ccccc34)n2)s1 (stereo unspecified)
### Response 2.39

### Prompt Field request: relative growth recovery | item: `Cc1nn(C)c(C)c1/C=C/C(=O)N1CCC(c2cc3ccccc3c(Nc3nccs3)n2)CC1`
### Response 51.1

### Prompt Field request: relative growth recovery | item: `CCNc1nc(NCC)nc(NS(=O)(=O)c2ccc(N)cc2)n1`
### Response 3.4

### Prompt Field request: relative growth recovery | item: O=C1CCC(N2C(=O)c3cc(F)c(N4CCC(Cn5cc(C(=O)O)cn5)CC4)cc3C2=O)C(=O)N1 (stereo unspecified)
### Response -2

### Prompt Field request: relative growth recovery | item: `Cn1nccc1/C=C/C(=O)N1CCC(c2cc3ccccc3c(Nc3nccs3)n2)CC1`
### Response -16.9

### Prompt Field request: relative growth recovery | item: `Nc1ccc(Oc2ccc3c(c2)C(=O)N(CCO)C3=O)cc1`
### Response 2.76

### Prompt Field request: relative growth recovery | item: CC(=O)N1CCCCC1c1csc(Nc2ccccn2)n1 (stereo unspecified)
### Response 1.36

### Prompt Field request: relative growth recovery | item: Cc1cnc(Nc2cccc(C3CN(C(=O)C4CCCC4)CCO3)n2)s1 (stereo unspecified)
### Response -12.3

### Prompt Field request: relative growth recovery | item: `COc1cc(NS(=O)(=O)c2ccc(NC(=O)c3ccccc3C(=O)O)cc2)nc(OC)n1`
### Response -4.23

### Prompt Field request: relative growth recovery | item: `Cc1cc(C)nc(NS(=O)(=O)c2ccc(NC(=O)c3ccc(Cl)cc3Cl)cc2)n1`
### Response -0.215

### Prompt Field request: relative growth recovery | item: `COc1ccc(Cl)c2c1[nH]c1nc(SCC(=O)Nc3ccc(Cl)cc3)nnc12`
### Response 2.88

### Prompt Field request: relative growth recovery | item: Cc1csc(Nc2cccc(C3CN(C(=O)CCC4CCCC4)CCO3)n2)n1 (stereo unspecified)
### Response 21

### Prompt Field request: relative growth recovery | item: Cc1cnc(Nc2cccc(C3CN(C(=O)C45CC6CC(CC(C6)C4)C5)CCO3)n2)s1 (stereo unspecified)
### Response -2.75

### Prompt Field request: relative growth recovery | item: `CC(=O)Nc1ccc(S(=O)(=O)N(C#N)c2nc(C)cc(C)n2)cc1`
### Response 4.26

### Prompt Field request: relative growth recovery | item: Cc1csc(Nc2cccc(C3CN(C(=O)Cn4nc(C)ccc4=O)CCO3)n2)n1 (stereo unspecified)
### Response 1.32

### Prompt Field request: relative growth recovery | item: `Cc1nc(/C=C/C(=O)N2CCC(c3cc4ccccc4c(Nc4nccs4)n3)CC2)cs1`
### Response -17.8

### Prompt Field request: relative growth recovery | item: `CC(C)Nc1nc(NC(C)C)nc(NS(=O)(=O)c2ccc(N)cc2)n1`
### Response -1.87

### Prompt Field request: relative growth recovery | item: O=C(c1cccc2ncccc12)N1CCOC(c2cccc(Nc3nccs3)n2)C1 (stereo unspecified)
### Response -7.12

### Prompt Field request: relative growth recovery | item: `Cc1cnc(Nc2cccc(C3CCN(C(=O)CCn4ncc5ccccc54)CC3)n2)s1`
### Response -1.66

### Prompt Field request: relative growth recovery | item: `O=C(CSc1nnc2c(n1)[nH]c1ccccc12)Nc1ccc(F)cc1`
### Response 7.2

### Prompt Field request: relative growth recovery | item: COCC(=O)N1CCCC1c1cccc(Nc2nc(C)cs2)n1 (stereo unspecified)
### Response -7.27

### Prompt Field request: relative growth recovery | item: `Cc1ccnc(NS(=O)(=O)c2ccc(NC(=O)C34CC5CC(CC(C5)C3)C4)cc2)n1`
### Response -6.07

### Prompt Field request: relative growth recovery | item: O=C1CCC(N2C(=O)c3cccc(NC[C@H]4CC[C@H](C(=O)O)CC4)c3C2=O)C(=O)N1 (stereo partly specified)
### Response 50.3

### Prompt Field request: relative growth recovery | item: `CC(=O)NC1(CC(=O)N2CCC(c3cccc(Nc4ncc(C)s4)n3)CC2)CCCCC1`
### Response -11.7

### Prompt Field request: relative growth recovery | item: `Cc1cnc(Nc2cccc(C3CCN(C(=O)C4(NC(=O)CC(C)(C)C)CCCCC4)CC3)n2)s1`
### Response -16.1

### Prompt Field request: relative growth recovery | item: Cc1csc(Nc2cccc(C3CN(C(=O)CCc4nc(C)no4)CCO3)n2)n1 (stereo unspecified)
### Response 5.6

### Prompt Field request: relative growth recovery | item: COc1ccc(CCC(=O)N2CCOC(c3cccc(Nc4ncc(C)s4)n3)C2)cc1 (stereo unspecified)
### Response 15.7

### Prompt Field request: relative growth recovery | item: `CC(=O)Nc1ccc(S(=O)(=O)Nc2cc(C)nc(C)n2)cc1`
### Response -1.14

### Prompt Field request: relative growth recovery | item: Cc1cnc(Nc2cccc(C3CN(C(=O)CC4CCCCC4)CCO3)n2)s1 (stereo unspecified)
### Response -11.7

### Prompt Field request: relative growth recovery | item: `COc1ccc(C(=O)Nc2ccc(S(=O)(=O)Nc3ncccn3)cc2)c(OC)c1`
### Response -1.31

### Prompt Field request: relative growth recovery | item: `COc1ccc(C(=O)Nc2ccc(S(=O)(=O)Nc3ccccn3)cc2)cc1`
### Response -5.12

### Prompt Field request: relative growth recovery | item: COc1ccc(CCC(=O)N2CCOC(c3cccc(Nc4nc(C)cs4)n3)C2)cc1 (stereo unspecified)
### Response 32.4

### Prompt Field request: relative growth recovery | item: `Cc1cc(Cl)ccc1OCC(=O)Nc1ccc(S(=O)(=O)Nc2ncccn2)cc1`
### Response -2.19

### Prompt Field request: relative growth recovery | item: `CC(C)Cc1nc2ccccc2n1CC(=O)N1CCC(Cc2cccc(Nc3nccs3)n2)CC1`
### Response -1.89

### Prompt Field request: relative growth recovery | item: Cc1csc(Nc2cccc(C3CCCN3C(=O)CCCc3ccc(F)cc3)n2)n1 (stereo unspecified)
### Response 0.885

### Prompt Field request: relative growth recovery | item: `CCCOc1ccc(C(=O)Nc2ccc(S(=O)(=O)Nc3nc(C)cc(C)n3)cc2)cc1`
### Response -2.85

### Prompt Field request: relative growth recovery | item: `O=C(Nc1ccc(S(=O)(=O)Nc2ncccn2)cc1)c1ccc([N+](=O)[O-])cc1`
### Response -0.33

### Prompt Field request: relative growth recovery | item: Cc1csc(Nc2cccc(C3CN(C(=O)COc4c(C)cccc4C)CCO3)n2)n1 (stereo unspecified)
### Response 22.3
